These entries and their values trace back to ChEMBL document CHEMBL4689842.

system: Fibroblast; test: Multiplex assay against human fibroblast; assay type: toxicity, cell-based; settings: 48 h, 1 µM, compound concentration 1 uM, replicate 2
# Population Tubulin-Different-Phenotype (%) listing for each entry below
Just the number in %, nothing appended.

Observe how each entry below is paired with its result.
Would you mind telling me what Population Tubulin-Different-Phenotype (%) value was observed for Cc1c(P(=S)(c2ccccc2)c2ccccc2)n2ccccc2[n+]1C/C=C/c1ccccc1.[Br-] ? 72

Now this one: CCCCCNC(=N)N/N=C/c1c[nH]c2ccc(OC)cc12.O=C(O)/C=C\C(=O)O [TEGASEROD MALEATE] 44

Now this one: CC(Cc1ccc(O)c(O)c1)C(C)Cc1ccc(O)c(O)c1 (configuration not stated) [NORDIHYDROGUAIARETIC ACID] 21

Further cases:
Would you mind telling me what Population Tubulin-Different-Phenotype (%) value was observed for CC(C)c1cc(Nc2nc(N3CCC[C@H](N)C3)ncc2C(N)=O)cc(C(C)C)n1 ? 58

Now this one: CN(c1cc(C(F)(F)F)nc(OCCC(=O)O)n1)c1cccc2c1CCC2 30

Now this one: N#CCNC(=O)c1ccc(-c2ccnc(Nc3ccc(N4CCOCC4)cc3)n2)cc1 21

Now this one: Cc1ccc(S(=O)(=O)NC2c3ccccc3Oc3ccccc32)cc1 34

Now this one: Oc1cccc(-c2nc(N3CCOCC3)c3oc4ncccc4c3n2)c1 47
